Kindly state IC50 for each of the entries shown.
assay: Antiproliferative activity against PDGF-induced rat aortic VSMC by colorimetric assay; format: functional, tissue-based; details: Aorta
Record the value in µM, omitting the unit from your answer.

In: Report measured IC50; entry is `O=C1C(Cl)=C(Sc2ccc(Br)cc2)C(=O)c2[nH]c(-c3ccccc3)nc21`
Out: 1.5

In: Report measured IC50; entry is `Cc1ccc(NC2=C(Cl)C(=O)c3nc(-c4ccccn4)[nH]c3C2=O)cc1`
Out: 50

In: Report measured IC50; entry is `O=C1C(Cl)=C(Nc2ccc(F)cc2)C(=O)c2[nH]c(-c3ccccn3)nc21`
Out: 9.4

In: Report measured IC50; entry is `O=C1C(Cl)=C(Nc2ccc(Cl)cc2)C(=O)c2[nH]c(-c3ccccn3)nc21`
Out: 12.1

In: Report measured IC50; entry is `O=C1C(Cl)=C(Nc2ccc(C(F)(F)F)cc2)C(=O)c2[nH]c(-c3ccccn3)nc21`
Out: 1

In: Report measured IC50; entry is `CCc1ccc(SC2=C(Cl)C(=O)c3nc(-c4ccccn4)[nH]c3C2=O)cc1`
Out: 7

In: Report measured IC50; entry is `CCOc1ccc(NC2=C(Cl)C(=O)c3nc(-c4ccccc4)[nH]c3C2=O)cc1`
Out: 50

In: Report measured IC50; entry is `Cc1ccc(NC2=C(Cl)C(=O)c3nc(-c4ccccc4)[nH]c3C2=O)cc1`
Out: 3

In: Report measured IC50; entry is `COc1ccc(NC2=C(Cl)C(=O)c3nc(-c4ccccc4)[nH]c3C2=O)cc1`
Out: 2

In: Report measured IC50; entry is `CCc1ccc(NC2=C(Cl)C(=O)c3nc(-c4ccccc4)[nH]c3C2=O)cc1`
Out: 10.7

In: Report measured IC50; entry is `COc1ccc(SC2=C(Cl)C(=O)c3nc(-c4ccccc4)[nH]c3C2=O)cc1`
Out: 1

In: Report measured IC50; entry is `O=C1C(Cl)=C(Nc2ccc(OC(F)(F)F)cc2)C(=O)c2[nH]c(-c3ccccn3)nc21`
Out: 20

In: Report measured IC50; entry is `O=C1C(Cl)=C(Nc2ccc(F)cc2)C(=O)c2[nH]c(-c3ccncc3)nc21`
Out: 50

In: Report measured IC50; entry is `O=C1C(Cl)=C(Nc2ccc(Br)cc2)C(=O)c2[nH]c(-c3cccnc3)nc21`
Out: 50
